- Tested on: HeLa
- experiment: Cytotoxicity against human HeLa cells after 72 hrs by MTT assay
- Assay type: functional, cell-based
attribute_measured: IC50 (µg/mL)
Numbers only here, please. The scale is µg/mL.

Item C[C@@H]1O[C@@H](O[C@H]2[C@H](O)[C@@H](O)[C@H](O[C@H]3CC[C@@]4(C)C(=CC[C@H]5[C@@H]6C[C@@H]7O[C@]8(CC[C@@H](CO[C@@H]9O[C@H](CO)[C@@H](O)[C@H](O)[C@H]9O)CO8)[C@@H](C)[C@@H]7[C@@]6(C)CC[C@@H]54)C3)O[C@@H]2CO)[C@H](O)[C@H](O)[C@H]1O [POLYGONATOSIDE D] has what recorded IC50?
5.83
